Property: pest or weed control at 6.25 g/ha; scope: individual compounds
test system: Leptosphaeria nodorum; assay: Leptosphaeria nodorum test (wheat)/protective; type: in vivo; conditions: Parastagonospora nodorum, 240 h, application rate 6.25 g/ha, protective, 10 days after inoculation, read-out: Efficacy in %
Record the value in %, omitting the unit from your answer.

Before answering, review these 4 worked examples.
N#Cc1c[nH]cc1-c1cccc2c1OC(F)(F)O2	25
CC(C)(C)C(O)(CCc1ccc(Cl)cc1)Cn1cncn1 (centres unmarked)	25
CC1(C)CCC(Cc2ccc(Cl)cc2)C1(O)Cn1cncn1 (centres unmarked)	50
CC(C)(C)C(O)C(Oc1ccc(Cl)cc1)n1cncn1 (centres unmarked)	0

Notebook entry, Leptosphaeria nodorum assay: pest or weed control at 6.25 g/ha of Cc1cc(C2CC2)nc(Nc2ccccc2)n1 [(R), cyprodinyl] = ?
25

----------
system: Leptosphaeria nodorum; assay: Leptosphaeria nodorum test (wheat)/protective; type: in vivo; settings: Parastagonospora nodorum, 240 h, application rate 6.25 g/ha, protective, 10 days after inoculation, read-out: Efficacy in %
Listed here are molecules together with their documented pest or weed control at 6.25 g/ha.

Answered cases to consult:
Fc1ccc([C@]2(Cn3cncn3)O[C@H]2c2ccccc2Cl)cc1 (racemic)	50%
CON=C(C1=NOCCO1)c1ccccc1Oc1ncnc(Oc2ccccc2Cl)c1F	25%

Please examine the following record next.
Reported pest or weed control at 6.25 g/ha for CO/N=C(\C(=O)OC)c1ccccc1COc1ccccc1C : what is it?
0%
